Experiment: antimalarial activity against Dd2 strain (AID 2302)
Details: P. falciparum Dd2 in RBCs, LDH growth readout, 72 h; at 2 µM
Calls of active or inactive are those of the source.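 How the source made its calls: active means growth inhibition above 50% at the single 2 µM test dose, taken to imply half-maximal potency below 2 µM; inactive means the rest.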
Outcome (select one): active, inactive

Some solved entries appear below for comparison.
> print(dat)
                                   compound  assigned.category
1  Brc1ccc(Nc2ccnc3cc(-c4nccs4)ccc23)cc1Oc1ccnc2cc(-c3nccs3)ccc12             active
2  CN(C)Cc1cccc(-c2ccc(Nc3nccc(NCC(O)c4ccccc4)n3)cc2)c1 (stereo not given)             active
3   CCOc1ccccc1CNc1nccc(NCc2ccc(Cl)cc2Cl)n1             active
4  O=C(COC(=O)c1cccc(S(=O)(=O)N2CCc3ccccc32)c1)NNC(=O)c1cccs1           inactive
5  Cc1cccc2c3c([nH]c12)C1(CCN(CCc2ccccc2)CC1)NC(C(=O)NCc1ccccc1)C3 (stereo not given)             active

Call for entry Cc1cc(N)ncc1-c1ccc(NC(=O)Nc2cc(C(F)(F)F)ccc2F)cc1 :
inactive

// query: CC1CCc2sc(-c3nnc(SC(C)C(=O)NC4CC4)o3)cc2C1 (stereo not given)
active

Likewise for O=C(Nc1cccc(CN2CCN(Cc3ccc(O)cc3)CC2)c1)c1cc2ccccc2o1 ?
inactive

Moving on to the next compound: CC[C@H](C)CNC(=O)c1cncc(-c2cccc(CNCCCc3ccccc3)c2)c1
inactive

Please do the same for CCOC(=O)N[C@@H]1CN[C@@H](C#Cc2cc3c(Nc4ccc(OCc5cccc(F)c5)c(Cl)c4)ncnc3s2)C1 as well.
inactive
